- system: human S1P5 receptor (Homo sapiens, UniProt Q9H228)
- Construct: host or cells: CHO (AequoScreen recombinant cell line, co-expressing mitochondrially targeted apo-Aequorin)
- Sequence (Q9H228 whole entry): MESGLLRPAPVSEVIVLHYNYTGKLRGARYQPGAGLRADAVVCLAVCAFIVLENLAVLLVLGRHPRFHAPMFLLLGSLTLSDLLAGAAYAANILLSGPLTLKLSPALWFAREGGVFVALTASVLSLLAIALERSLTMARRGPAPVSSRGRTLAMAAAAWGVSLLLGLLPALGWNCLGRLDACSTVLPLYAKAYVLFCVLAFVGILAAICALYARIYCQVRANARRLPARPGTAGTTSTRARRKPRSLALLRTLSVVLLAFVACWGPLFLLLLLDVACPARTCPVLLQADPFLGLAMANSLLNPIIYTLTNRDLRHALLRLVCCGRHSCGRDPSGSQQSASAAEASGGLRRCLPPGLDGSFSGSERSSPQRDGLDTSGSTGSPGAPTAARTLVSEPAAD
- assay text: In vitro functional activity (agonism) on human S1P5 receptors, CHO-human-S1P5-Aequorin assay
- Format: cell-based
- applied conditions: CHO-human-S1P5-Aequorin cells, luminescence, read-out: S1P5 pEC50 (converted)
Structures can show the parent of a compound that is named as a salt.
measured property: EC50 (nM)
One number for each entry, in nM.

[[record]]
molecule = "O=C(O)CCN1CCOC(c2ccc(C(=O)c3c(Cl)cccc3Cl)cc2)C1 (centres unmarked) [Compound 6, hydrochloride]"
unit_info = "nM"
numeric_result = 501

[[record]]
molecule = "Cc1ccc(Oc2ccc(C3CN(CCC(=O)O)CCO3)cc2)cc1C (centres unmarked) [Compound 47, hydrochloride]"
unit_info = "nM"
numeric_result = 200

[[record]]
molecule = "O=C(O)CCN1CCOC(c2ccc(Oc3ccc4ccccc4c3)cc2)C1 (centres unmarked) [Compound 68, hydrochloride]"
unit_info = "nM"
numeric_result = 631

[[record]]
molecule = "CC1(C)CN(CCC(=O)O)CC(c2ccc(Oc3c(Cl)cccc3Cl)cc2)O1 (centres unmarked)"
unit_info = "nM"
numeric_result = 158


Next, consider the following molecule.
// EC50 (human S1P5 receptor (Homo sapiens, UniProt Q9H228)) for Cc1cccc(Oc2ccc(C3CN(CCCC(=O)O)CCO3)cc2)c1C (centres unmarked) [Compound 87, hydrochloride] = 1000

====

For each entry below, report its EC50 value.
- system: human S1P5 receptor (Homo sapiens)
- Construct: host or cells: CHO (AequoScreen recombinant cell line, co-expressing mitochondrially targeted apo-Aequorin)
- assay text: In vitro functional activity (agonism) on human S1P5 receptors, CHO-human-S1P5-Aequorin assay
- Assay type: cell-based
- applied conditions: CHO-human-S1P5-Aequorin cells, luminescence, read-out: S1P5 pEC50 (converted)
Counter-ions that a name gives are not always drawn.
Numbers only, in nM.

Study these solved cases before continuing.
[[record]]
compound = "Cc1ccc(Oc2ccc(C3CN(CCC(=O)O)CCO3)cc2)cc1Cl (centres unmarked) [Compound 15, hydrochloride]"
numeric_result = 501

[[record]]
compound = "Cc1cccc(Oc2ccc(C3(C)CN(CCC(=O)O)CCO3)cc2)c1C (centres unmarked) [Compound 80, hydrochloride]"
numeric_result = 631

[[record]]
compound = "O=C(O)CCN1CCOC(c2ccc(Oc3cccc4ccccc34)cc2)C1 (centres unmarked) [Compound 29, hydrochloride]"
numeric_result = 63.1

[[record]]
compound = "CCCCc1ccc(Oc2ccc(C3CN(CCC(=O)O)CCO3)cc2)cc1 (centres unmarked) [Compound 26, hydrochloride]"
numeric_result = 2000


Report EC50 for every entry below.
1. Cc1ccc(Oc2ccc(C3CN(CCC(=O)O)CCO3)cc2)cc1 (centres unmarked) [Compound 64, hydrochloride]
2. O=C(O)CCN1CCOC(c2ccc(Oc3ccccc3C(F)(F)F)cc2)C1 (centres unmarked) [Compound 35, hydrochloride]
3. Cc1cccc(C)c1Nc1ccc(C2CN(CCC(=O)O)CCO2)cc1 (centres unmarked) [Compound 2, hydrochloride]
4. O=C(O)CCN1CCOC(c2ccc(Oc3ccc(OCc4ccccc4)cc3)cc2)C1 (centres unmarked) [Compound 57, hydrochloride]

OUTPUT:
[1580, 200, 631, 2000]

====

For each entry below, report its EC50 value.
- system: human S1P3 receptor (Homo sapiens)
- Construct: cell line established at Solvay Pharmaceuticals; host or cells: CHO K1 (CHO/Gα16/AEQ/h-S1P3)
- Sequence (Q99500 whole entry): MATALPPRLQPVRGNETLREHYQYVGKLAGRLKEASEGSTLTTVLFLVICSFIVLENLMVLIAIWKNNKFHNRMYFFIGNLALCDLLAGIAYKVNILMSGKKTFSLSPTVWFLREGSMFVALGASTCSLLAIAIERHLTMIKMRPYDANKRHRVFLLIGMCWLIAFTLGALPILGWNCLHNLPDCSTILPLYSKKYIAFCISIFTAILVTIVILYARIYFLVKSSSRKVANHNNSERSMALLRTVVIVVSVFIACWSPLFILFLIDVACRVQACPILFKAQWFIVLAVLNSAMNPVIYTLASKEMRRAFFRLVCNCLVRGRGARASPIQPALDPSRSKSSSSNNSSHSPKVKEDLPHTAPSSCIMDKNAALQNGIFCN
- assay text: In vitro functional activity (agonism) on human S1P3 receptors, CHO-human-S1P3-Aequorin assay
- Type: cell-based
- applied conditions: CHO/Gα16/AEQ/h-S1P3 cells, luminescence, read-out: S1P3 pEC50 (converted)
Counter-ions that a name gives are not always drawn.

[[record]]
compound = "Cc1ccc(Oc2ccc(C3CN(CCC(=O)O)CCO3)cc2)cc1C (stereo not drawn) [Compound 47, hydrochloride]"
measured_property = "EC50"
result = "> 10 µM"


Report EC50 for every entry below.
1. Cc1ccc(Oc2ccc(C3CN(CCC(=O)O)CCO3)cc2)cc1 (stereo not drawn) [Compound 64, hydrochloride]
2. O=C(O)CCN1CCOC(c2ccc(Oc3ccc4ccccc4c3)cc2)C1 (stereo not drawn) [Compound 68, hydrochloride]

OUTPUT:
1. > 10 µM
2. > 10 µM

====

Structures can show the parent of a compound that is named as a salt.
For each entry below, report its melting point value.

[[record]]
molecule = "Cl.O=C(O)CCN1CCOC(c2ccc(Oc3c(Cl)cccc3Cl)c(Cl)c2)C1 (centres unmarked)"
result = "224 to 227 °C"


Report melting point for every entry below.
1. Cc1cccc(C)c1Oc1cccc(C2CN(CCC(=O)O)CCO2)c1 (centres unmarked) (as salt: hydrochloride)
2. Cl.O=C(O)CCN1CCOC(c2ccc(Oc3c(Cl)cccc3Cl)cc2C(F)(F)F)C1 (centres unmarked)
3. Cc1cccc(Oc2ccc(C3CN(CCC(=O)O)CCS3)cc2)c1C.Cl (centres unmarked)
4. Cl.O=C(O)CCN1CCOC(c2ccc(Oc3c(Cl)cccc3Cl)cc2F)C1 (centres unmarked)

OUTPUT:
219 to 223 °C
135 to 136 °C
178 to 183 °C
207 to 209 °C

====

Structures can show the parent of a compound that is named as a salt.
For each entry below, report its melting point value.

Study these solved cases before continuing.
[[record]]
compound = "Cc1cccc(Cl)c1Oc1ccc(C2CN(CCC(=O)O)CCS2)cc1.Cl (stereo not drawn)"
result = "192.5 to 195 °C"

[[record]]
compound = "Cl.O=C(O)CCN1CCSC(c2ccc(Oc3ccccc3Cl)cc2)C1 (stereo not drawn)"
result = "155 to 160 °C"


Next, consider the following compound.
The value of melting point measured for the compound Cc1cccc(Oc2ccc(C3CN(CCCC(=O)O)CCO3)cc2)c1C (stereo not drawn) (as salt: hydrochloride) [Compound 87] turned out to be 225 to 227 °C
